Target: mixture of the affinity column-eluted histone proteins (sigma-2 receptor)
Assay: competition binding assay with [3H]-DTG on mixture of affinity column-eluted histone proteins
Details: 20 mcg histone proteins, radioligand [3H]-DTG
metric: Ki (nM)
Only the number, expressed in nM, is required.

Exercise: I am curious: what Ki value has been reported for COc1ccccc1[C@H]1CC[C@H](N2CCN(C3CCCCC3)CC2)CC1 ?
Key: 0.068
